B1: TPR t1 (parent)
chain: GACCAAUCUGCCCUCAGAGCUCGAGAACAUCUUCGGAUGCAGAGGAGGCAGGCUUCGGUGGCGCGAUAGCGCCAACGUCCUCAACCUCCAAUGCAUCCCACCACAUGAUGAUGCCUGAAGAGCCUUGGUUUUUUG

- Variants of: B1
- testName: polymerase ribozyme fitness, log enrichment relative to wild type (log ratio); higher = more active; in vitro selection for triplet polymerase activity
Lab note: class by polymerase ribozyme fitness (log ratio), see range A = under -4, range B = from -4 up to -2, range C = -2 and over

[
  {
    "recordSequence": "GGCCAAUCUGCCCUCAGAGCUCGAGAACAUCUUCGGAUGCAGAGGAGGCAGGCUUCGGUGGCGCGAUAGCGCCAACGUCCUCAACCUCCAAUGCAUCCCACCACAUGAUGAUGCAUGAAGAGCCUUGGUUUUUUG [A2G C115A]",
    "cat": "range C"
  },
  {
    "recordSequence": "GACCAAUCUGCCCUCAGAGCUCGAGAACAUCUUCGGAUGCAGAGGAGGCAGGCUUCGGUGGCGCGAUAGCGCCAACGCCCUCAACCUCCAAUGCAUCCCACCACAUGAUGAUGCCUGAAGAGCCUCGGCUUUUUG [U78C U126C U129C]",
    "cat": "range B"
  },
  {
    "recordSequence": "GACCAAUCUGGCCUCAGAGCUCGAGAACAUCUUCGGAUGCAGAGGAGGCAGGCUUCGGUGGCGCGAUAGCGCCAACAUCCUCAACCUCCAAUGCAUCCCACCACAUGAUGAUGCCUGAAGAGCCUUGGUUUUUUG [C11G G77A]",
    "cat": "range C"
  },
  {
    "recordSequence": "GACCAAUCUGCCCUCAGAGCUCGAGAACAUCUUCGGAUGCAGAGUAGGCAAGCUUCGGUGGCGCGAUAGCGCCAACGUCCUCAACCUCCAAUGGAUCCCACCACAUGAUGAUGCCUGAAGAGCCUUGGUUUUUUG [G45U G51A C94G]",
    "cat": "range A"
  },
  {
    "recordSequence": "GACCAAUCUGCUCUCAGAGCUCGAGAACAUCUUCGGAUGCAGAGGAGGCAGGCUUCGGUGGCGCGAUAGCGCCAACGUACUCAACCUCCAAUGCAUCCCACCACAUGAUGAUGCCUGAAGAGCCUUGGUUUUUUG [C12U C79A]",
    "cat": "range C"
  },
  {
    "recordSequence": "GACCAAUCUGCCCUCAGAGCUCGAGAACAUCUUCGGAUGCAGAGGAGGAAGGCUUCGGUGGCGCGAUAGCGCCAACGUCCUCAACCUCCAAUGCAUCCCACCACAUGAUGAUGCCUGGAGAGCCUUGGUUUUUUG [C49A A118G]",
    "cat": "range C"
  },
  {
    "recordSequence": "GACCAAUCUGCCCUCAGAGCUGGAGAACAUCUUCGGAUGCAGAGGAGGCAGGCUUCGGUGGCGCGAUAGCGCCAACGUCCUCAACCUCCAAUGCAUCCCACCACACGAUGAUGCCUGAAGAGGCUUGGUUUUGUG [C22G U106C C123G U133G]",
    "cat": "range B"
  },
  {
    "recordSequence": "GACCAAUGUGCCCUCAGAGCUCGAGAACAUCUUCGGAUGCAGAGGAGGCAGGCUUCGGUGGCCCGAUAGCGCCAACGUCCUCAACCUCCAAUGCAUCCCACCACAUGAUGAUGCCUGAAGAGCCUUGGUUUUUUG [C8G G63C]",
    "cat": "range C"
  },
  {
    "recordSequence": "GACCAAUCUGCCCUCAGAGCUCGAGAACAUCUUCGGAUGCAGAGGAGGCAGGCUUCGGUGGCGCGAUAGCGCCAACGUCCUCAACCUCCAAUGCAUCCUACCACAUGAUGAUGCCUGAAGAGACUUGGUUUUUUG [C99U C123A]",
    "cat": "range B"
  },
  {
    "recordSequence": "GUCCAAUCUGCCCUCAGAGCUCGAGAACAUCUUCGUAUGCUGAGGAGGCAGGCGUCGGUGGCGCGAUAGCGCCAACGUCCUCAACCUCCAAUGCAUCCCACCACAUGAUGAUGCCUGAAGAGCCUUGGUUUUUUG [A2U G36U A41U U54G]",
    "cat": "range A"
  },
  {
    "recordSequence": "GACCAAUCUGCCCUCAGAGCUCGAGAACAUCUUCGCAUGCAGAGGAGGCAGGCUUCGGUGGCGCGAUAGCGCCAACGCCCUCAACCUCCAAUGCAUCCCACCACAUGAUGAUGCCUGAAGAGCCUUGGUUUUUUG [G36C U78C]",
    "cat": "range C"
  },
  {
    "recordSequence": "GACCAAUCUGCCCUCAGAGCUCGAGAACAUCUUCGGAUGCAGAGGAGGCAGGCUUAGGUGGCGCGAUAGCGCCAACGUACUCAACCUCCAAUGCCUCCCAUCACAUGAUGAUGCCUGAAGAGCCUUGGAUUUUUG [C56A C79A A95C C101U U129A]",
    "cat": "range A"
  },
  {
    "recordSequence": "GACCAAUCUGCCCUCAGAGCUCGAGAACAUCUUCGGUUGCAGAGGAGGCAGGCUUCGGUGGCGCGAUAGUGCCAACGUCCUCAACCUCCAAUGCAUCCCACCACAUGAUGAUGCCUGAAGAGCCUUGGUUUUUUG [A37U C70U]",
    "cat": "range C"
  },
  {
    "recordSequence": "GACCAAUCUGCCCUCAGAGCUCGAGAACAUCUUCGGAUGCAGAGGAGGUAGGCUUCGGUGGCGCGAUAGCGCGAACGUCCUCAACCUCCAAUGCAUCCCACCACAUGAUGAUGCCUGAAGAGCCUUGGUUUUUUG [C49U C73G]",
    "cat": "range C"
  },
  {
    "recordSequence": "GACCAAUCUGCCCUCAGAGCUCGAGAAAAUCUUCGGAUGCAGUGGAGGCAGGCUUCGGUGGCGCGAUAGCGCCAACGUCCUCAACGUCCAAUGCAUCCCACCACAUGAUGAUGCCUGAAGAGCCUUGGUUUUUUG [C28A A43U C86G]",
    "cat": "range A"
  },
  {
    "recordSequence": "GAGCAAUCUGCCCUCAGAGCUCGAGAACAUCUUCGGAUGCAGAGGAGGCAGGCUUCGGUGGCGCGAUAGCCCCAACGUCCUCAACCUCCUAUGCUUCCCACCACAUGAUGAAGCCUGAAGAGCCUUGGUUUUUUG [C3G G71C A90U A95U U112A]",
    "cat": "range B"
  },
  {
    "recordSequence": "GACCGAUCUACCCUCAGAGCUCGAGAACAUCUUCGGAUGCAGAGGAGGCAGGCUUCGGUGGCGCGAUAGCGACAACGUCCUCAACCUCCAUUGCAUCCCACCACAUGAUGAUGCCUGAAGAGCCUUGGUUUUUUG [A5G G10A C72A A91U]",
    "cat": "range C"
  },
  {
    "recordSequence": "GACCAAUCUGGCCUCAGAGCUCGAGAACAUCUUCGGAUGCAGAGGAGGCAGGCUUCGGUGGCGCGAUAGCGCCAACGUCCUCAACCUCCAAUGCAUCCCACCACAUGAUGAUGCCUGAAGAGCCAUGGUUUUUUG [C11G U125A]",
    "cat": "range C"
  },
  {
    "recordSequence": "GACCAAUCUGCCCACAGAGCUCGAGAACAUCUUCGGAUGCAGAGGAGGCAGGCUUCGGUGGCGCGAUAGCGCCAACGUCCACAACCUCCAAUGCAUCCCACCACAUGAUGAUGCCUGAAGAGCCUUGGUUUUUUG [U14A U81A]",
    "cat": "range A"
  },
  {
    "recordSequence": "GACCAAUCUGCCCUCAGCGCUCGAGAAUAUCUUCGGAUGCAGAGGAGGCAGGCUUCGGUGGCGCGAUAGCGCCAACGUCCUCAACCUCCAAUGCAUCCCACCACAUGAUGAUGCCUGAAGAGCCUUGGUUUUUUG [A18C C28U]",
    "cat": "range A"
  },
  {
    "recordSequence": "GACCAAUCUGCCCUCAGAGCUCGAGAACAUCUUCGGAUGCAGGGGAGGCAGGCUUCUGUGGCGCGAUAGCGCUAACGUCCUCAACCUCCUAUGCAUCCCACUACAUGAUGAUGCCUGAAGAGCCUUGGUUUUUUG [A43G G57U C73U A90U C102U]",
    "cat": "range A"
  },
  {
    "recordSequence": "GACCAAUCUGCCCUCAGAGCUCGAGAACAUCUUCGGAUGCAGAGGAGGCCGGCUUCGGUGGCGCGAUAGAGCCAACGUCCUCAACCUCCAAUGCAUCCCACCACAUGAUGAUGCCUGAAGAGCCUUGGUUUUUUG [A50C C70A]",
    "cat": "range B"
  },
  {
    "recordSequence": "GACCAAUCUACCGUCAGAGCUCGAGAACAUCUUCGGAUGCAGAGGAGGCAGGCUUCGGUGGCGCGAUAACGCCAACGCCCUCAACCUCCAAUGCAUCCCACCACAUGAUGAUGCCUGAAGAGCCUUGGUUUUUUG [G10A C13G G69A U78C]",
    "cat": "range B"
  },
  {
    "recordSequence": "GACCAAUCUGCACUCAGAGCUCGAGAACAUCUUCGGAUGCAGAGGAGGCAGGCUUCGGUGGCGCGAUAGCGCAAACGUCCUCAACCUCCAAUGCAUCCCACCACAUGAUGAUGCCUGAAGAGCCUUGGUUUUUUG [C12A C73A]",
    "cat": "range C"
  },
  {
    "recordSequence": "GACCAAUCUGCCUUCAGAGCUCGAGAACAUCUUCGGAUGCAGAGGAGGCGGGCUUCGGUGGCGCGAUAGCGCCAACGUCCUCAACCUCCAAUGCAUCCCACCACAUGAUGAUGCCUGAAGAGCCUUGGUUUUUUG [C13U A50G]",
    "cat": "range C"
  },
  {
    "recordSequence": "GACCAAUCUGCCCUCAGAGCUCGAGAACAUCUUCGGAUGCAGAGGAGGCAGGGUUCGGUGGCGCGAUAGCGCCAACGUCCUCAACCUCCAAAGCAUCCCACCACAUGAUGAUGCCUGAAGAGCCUUGGUUUUUUG [C53G U92A]",
    "cat": "range B"
  },
  {
    "recordSequence": "GACCAAUCUGCCCUCAGAGCUCGAGAACAUCUUCGGAUGCAGAGGAGGCAGGCUUCGGUGGCGCGAUAGCGCCAACGUCCUCAACCUCCAAUGCAUUCCACCACAUGAUGACGCCUGAAGCGCCUUGGUUUUUUG [C97U U112C A121C]",
    "cat": "range C"
  },
  {
    "recordSequence": "GACCAAUCUGCCCUCAGAGCUCGAGAACAUCUUCGGAUGCAGAGGAGGCAGGCUUCGGUGGCGCGUUAGCGCCAAUGUCCUCAACCUCCAAUGCAUCCCACCACACGAUGAUGCCUGAGGAGCCUCGGUAUUUUG [A66U C76U U106C A119G U126C U130A]",
    "cat": "range B"
  },
  {
    "recordSequence": "GACCAAUCUGCCCUCAGAGCUCGAGAACAUCUUCGGAUGCAGAGGAGGCAGGCUUCGGUGGCGCGAUAGCGCCAACGUCCUCAACCUCCAAUGCAUCCCACCACAUGAUGAUGCCUAAAGAGCCUUGGUUAUUUG [G117A U131A]",
    "cat": "range C"
  },
  {
    "recordSequence": "GACCAAUCUGCCCUCAGAGCUCGAGAACAUCUUCGGAUGCAGAGGAGGCAGGCUUCGGUGGCGCGAUAGCGCCAACGUCCUCAACCUCCAAUGCAUCCCACCACAUGAUGAUGCCUGAAGAGCCUUGCUUAUUUG [G128C U131A]",
    "cat": "range C"
  },
  {
    "recordSequence": "GACCAAUCUGCCCUCACAGCUCGAGAACAUCUUCGGUUGCAGAGGAGGCAGGCGUCGGUGGCGCGAUAGCGCCAACGUCCUCAACCUCCAAUGCAUCCCACCACAUGAUGACGCCUGAAGAGCCUUGGUUUUUUG [G17C A37U U54G U112C]",
    "cat": "range B"
  },
  {
    "recordSequence": "GACCAAUCUGCCCUUAGAGCUCGAGACCAUCUUCGGAUGCAGAGGAGGCAGGCUUGGGUGGCGCGAUAGCGCUAACGUCCUCAACCUCCAAUGCAUUCCACCACAUGAUGAUGCCUGAAGAGCCUUGGUUUUUUG [C15U A27C C56G C73U C97U]",
    "cat": "range A"
  },
  {
    "recordSequence": "GACCAAUCUGCCCUCAGAGCUAGAGAACAUCUUCGGAUGCAGAGGAGGCAGGCUUCGGUGGCGCGAUAGCGCCAACGUCCUCAACCUCCAGUGCAUCCCACCACAUGAUGAUGCCUGAAGAGCCUUGGUUUUUUG [C22A A91G]",
    "cat": "range A"
  },
  {
    "recordSequence": "GACCAAUCUGCCCUCAGAGCUCGAGAACAUCUUUGGAUGCAGAGGAGUCAGGCUUCGGUGGCGCGAUAGCGCCAACGUCCUCAACCUCCAAUGCAUCCCACCACAUGAUGAUGCCUGAAGAGCCUUGGUUUUUUG [C34U G48U]",
    "cat": "range A"
  },
  {
    "recordSequence": "GACCAAUCUGCCCUCAGAGCUCGAGAACAUCUUCGGAUGCAGAGGAGGCAGGCUUUGGUGGCACGAUAGCGCCAACGUCCUCAACCUCCAAUGCAUCCCACCACAUGAUGAUGCCUGAAGAGCCUUGGUUUUUUG [C56U G63A]",
    "cat": "range A"
  },
  {
    "recordSequence": "GACCAAUCUGCCCUCAGAGCUCGAGAACAUCUUCGGAUGGAGAUGAGGCAGGCUUCGGUGGCCCGAUAGCGCCAACGUCCUCAAUCUCCAAUGCAUCCCACCACAUGAUGAUGCCUGAAGAGCCUUGGUUUUUUG [C40G G44U G63C C85U]",
    "cat": "range A"
  }
]
